Biological target: T1, Human CD33 full length, expressed on HEK293F cells (human, UniProt P20138 18-364)
T1 construct: HEK293F cells transduced with lentivirus containing full length human CD33; also called huCD33
T1 sequence (P20138 18-364 limits assumed): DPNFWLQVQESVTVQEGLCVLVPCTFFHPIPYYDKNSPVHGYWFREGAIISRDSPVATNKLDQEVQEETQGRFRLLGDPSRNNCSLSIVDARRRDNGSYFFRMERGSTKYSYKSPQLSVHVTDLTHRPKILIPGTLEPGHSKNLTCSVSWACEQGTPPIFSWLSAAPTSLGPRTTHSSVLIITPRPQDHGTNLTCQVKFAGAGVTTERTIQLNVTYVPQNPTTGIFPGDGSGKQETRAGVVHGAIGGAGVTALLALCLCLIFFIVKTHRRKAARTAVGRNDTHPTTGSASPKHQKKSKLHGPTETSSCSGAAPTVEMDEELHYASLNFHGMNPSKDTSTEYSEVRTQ
Experiment: flow cytometry, HEK293F cells expressing human CD33
measured-endpoint: MFI at 60 nM mAb (MFI)
Enter your answer as a number in MFI; do not include the unit.

Please review the entries below; each comes with its answer.
C33B96 (antibody, IgG1, V domains shown, huIgG1 F405L; also called C33F101; C33H99/C33L37) VH: EVQLVESGGGLVQPGGSLRLSCAASGFTFSSYWMTWVRPAPGKGLEWVANIKRDGGEKYYVDSVKGRFTISRDNAANSLYLQMNSLRVEDTAVYYCARPFYDHFDYWGQGTLVTVSS VL: SYVLTQPPSVAVAPGQTARITCGGSNIGKISVHWYQQKAGQAPVLVVHDDRARPSGIPERLSGSNSGTTATLTISRVEVGDEADYYCQVWNSSSVHPVFGGGTKLTVL : 476000
C33B73 (antibody, IgG1, V domains shown, huIgG1 F405L; also called C33F78; C33H66/C33L60) VH: QVQLVESGGGVVQPGRSLRLSCVASGFTFSSYGMHWVRQAPGKGLEWVAVISYDGSNKYYADSVKGRFTISRDNSKNTLYLQMNSLRAEGTAVYYCAKDFRSFDWLPPDSASYHGMDVWGQGTTVTVSS VL: SYELTQPPSVSVSPGQTASITCSGDKLGDKYACWYQQKPGQSPVLVIYQDGKRPSGIPERFSGSNFGNKATLTISGTQAMDEADYYCQAWDRNTVVFGGGTKLTVL : 201000
C33B72 (antibody, IgG1, V domains shown, huIgG1 F405L; also called C33F77; C33H65/C33L47) VH: QVQLVESGGGVVQPGRSLRLSCAASGFTFSSYGMHWVRQAPGKGLEWVVVISYDGSNKYYADSVKGRFTISRDNSKNTLYLQMNSLRAEDTAVYYCAKDFRDFDWLPPDSTSYHGMDVWGQGTTVTVSS VL: SYELTQPPSVSVSPGQTASITCSGDKLGDKYACWYQQKPGQSPVVVIYQDRKRPSGIPERFSGSNFGNTATLTISGTQAMDEADYYCQAWDSSTVVFGGGTKLTVL : 328000
C33B63 (antibody, IgG1, V domains shown, huIgG1 F405L; also called C33F68; C33H51/C33L34) VH: QLQLQESGPGLVKPSETLSLTCTVSGGSISTGRYYWGWIRQPPGKGVIWIGNIYYSGNTYYNPSLKSRVTISVDTSKNQFSLKLNSVTAADTAVYYCARLGSLVVVPAAMSFDYWGQGTLVTVSS VL: SYELTQPPSVSVSPGQTASITCSGDKLGDKYACWYQLRPGQSPILVIYQDSNRPSGIPERFSGSNSGNTATLTISGTQAMDEADYYCQAWDSSTWVFGGGTKLTVL : 248000

Input line: GET /values?readout=MFI at 60 nM mAb&item= C33B101 (antibody, V domains shown, huIgG1 F405L; 260 is used; also called C33F106; C33H69/C4LL152) VH: QLQLQESGPGLVKPSETLSLTCTVSGGSISSSSYYWGWIRQPPGKGLDWIGSINYSGSTYYNPSLKSRVTISVDTSKIQFSLKLRSVTAADTAVYYCARLDGYESPFDYWGQGTLVTVSS VL: DIQMTQSPSSVSASVGDRVTITCRASQGISSWLAWYQQKPGKAPKLLIYAASSLQSGVPSRFSGSGSGTDFTLTISSLQPEDFATYYCQQANSFPFTFGPGTKVDIK
Output line: 269000
